System: A498 renal
Test: NCI-60 one-dose screen, 48 h
Conditions: 10 µM unless noted
Procedure: Growth inhibition of the A498 human tumor cell line is measured as a screen for anti-cancer activity. Cells are grown in 96 well plates and exposed to the test compound for 48 hours. Compounds are tested at a single concentration, which is 10^-5 M for most compounds. The reported endpoint is percent growth (GI% or GIPRCNT), where numbers from 0 - 100% represent growth inhibition, and numbers from -100% - 0 represent cell death. For example, a value of 40 represents 60% growth inhibition. […]
About 83,000 compounds went through this panel and 20% of them were active in at least one assay; those are over-represented in the sample as a whole. The source made the active and inactive calls. The calls were made as follows: active = growth percent below 10; inactive = the rest.
Outcome codes: YES = active, NO = inactive

>>> print(df.to_string())
                        structure_as_smiles  label_class
0  O=C1Nc2ccccc2/C1=C/c1ccc(CO)n1-c1ccc(Cl)cc1           NO
1  COc1ccc(-c2nn(-c3ccc(S(C)(=O)=O)cc3)cc2/C=N/O)cc1           NO
2  CNC(=O)c1c(NC(=O)c2cccc(C(F)(F)F)c2F)sc2c1CCC(=O)C2          YES
3  O=C(NNc1nc2cc(F)cc(F)c2n2cccc12)c1cnccn1           NO
4  COc1ccc(/C=C(\C#N)C(=O)N2c3ccccc3Sc3ccc(SC)cc32)cc1F           NO
5  NS(=O)(=O)c1ccc(Nc2nc(N/N=C/c3ccccn3)nc(Nc3ccccc3)n2)cc1          YES
6   NS(=O)(=O)c1ccc(-n2cc(CN3CCCCC3)nn2)cc1           NO
7  C=CCn1c(SCC(=O)Nc2ccc(C(=O)/C=C/c3cc(OC)c(OC)c(OC)c3)cc2)nnc1-c1c[nH]c2ccccc12           NO

====

Test system: SR leukemia
Test: NCI-60 one-dose screen, 48 h (100 = growth as untreated, 0 = no growth, -100 = all killed)
Details: 10 µM unless noted
About 83,000 compounds went through this panel and 20% of them were active in at least one assay; those are over-represented in the sample as a whole.
// reported growth per item
MEASURED_PROPERTY: growth (%)

                                   molecule  measured_value
0  C=C(C)[C@@H]1CC[C@]2(COP(=O)(OCC)OCC)CC[C@]3(C)[C@H](CC[C@@H]4[C@@]5(C)CCCNC(C)(C)[C@@H]5CC[C@]43C)[C@@H]12           -51.4
1  C#CCNC1CCC(c2csc(C#C)n2)=C1C (configuration not stated)            2.46
2  CNC(=O)c1cc(N2CCc3cc(NC(=O)Nc4ccc(Cl)c(C(F)(F)F)c4)ccc32)ccn1            45.8
3  Nc1nc(-c2cccc([N+](=O)[O-])c2)c(N=Nc2ccc(Br)cc2)s1            50.7
4  COc1cc2nc(Cl)nc(Nc3cccc(C4=Nc5c(N)nc(N)nc5NC(c5ccccc5)C4)c3)c2cc1OC (configuration not stated)           -1.18
5  NC(N)=Nc1ccc(Oc2cccc(NC(N)=Nc3ccc(I)cc3F)c2)cn1            7.24
6  COc1cc2nc(Cl)nc(Nc3cccc(C4=Nc5c(N)nc(N)nc5NC(c5ccc(Cl)cc5)C4)c3)c2cc1OC (configuration not stated)           -8.05

====

System: SNB-75 CNS
Test: NCI-60 one-dose screen, 48 h (100 = growth as untreated, 0 = no growth, -100 = all killed)
Settings: 10 µM unless noted
This is part of a sample that, as a whole, favours compounds with a hit. Of some 83,000 tested, about 20% had one in any assay. Activity calls are given as the source filed them. The calls were made as follows: active = growth percent below 10; inactive = the rest.
MEASURED_PROPERTY: growth

MOLECULE	TARGET_OR_TEST_SYSTEM	MEASURED_VALUE
COc1cc(OC)cc(C(=O)Nc2sc3c(c2C(N)=O)CCC(=O)C3)c1	SNB-75 CNS	47.9% (inactive)
C#Cc1ccc(C(=O)NCc2ccc(/C=C/C(=O)c3nccn3C)cc2)cc1	SNB-75 CNS	67.3% (inactive)
CCn1c(SCC(=O)Nc2cccc(C(=O)/C=C/c3ccc(C)cc3)c2)nc2ccccc2c1=O	SNB-75 CNS	93.3% (inactive)
Cc1ccc(N2C(=O)/C(=C/C=C/c3ccco3)SC2=S)cc1	SNB-75 CNS	98.1% (inactive)
O=C(CN1CCN(c2cc(=O)n(-c3ccccc3)c3ccccc23)CC1)Nc1nc(-c2ccccc2)cs1	SNB-75 CNS	71.6% (inactive)
COc1ccc(C2c3sc4c(C)cccc4c3Oc3nc(CC(=O)Nc4ccccc4)[nH]c(=O)c32)cc1 (centres undefined)	SNB-75 CNS	39.4% (inactive)
O=C(NNc1nc2cc(F)ccc2n2c(CN3CCC(O)C3)ccc12)c1cnccn1 (centres undefined)	SNB-75 CNS	51.9% (inactive)
COc1cc(/C=C2\C(=O)Nc3ccccc32)ccc1OCc1ccc(F)cc1	SNB-75 CNS	106% (inactive)
COc1c(N2CC3CCCNC3C2)c(F)cc2c(=O)c(C(=O)N/N=C/c3ccc(N(C)C)cc3)cn(C3CC3)c12 (centres undefined)	SNB-75 CNS	100% (inactive)
c1ccc(C(c2nc3ncncc3[nH]2)N2CSc3nc4ccccc4n3C2)cc1 (centres undefined)	SNB-75 CNS	91% (inactive)
NS(=O)(=O)c1ccc(Nc2nc(N/N=C/c3ccc(Cl)cc3)nc(Nc3ccccc3)n2)cc1	SNB-75 CNS	94.3% (inactive)
NC(N)=Nc1ccc(Oc2cccc(NC(N)=Nc3ccc(Br)c(C(F)(F)F)c3)c2)cc1	SNB-75 CNS	62.5% (inactive)
CCO/C=N/C1=C(C#N)C(c2ccc(OC)cc2)c2sc3c(C)cccc3c2O1 (centres undefined)	SNB-75 CNS	28.2% (inactive)
CCOC(=O)c1c(Nc2ccccc2)nn2c(-c3ccc(Cl)cc3)ccnc12	SNB-75 CNS	88% (inactive)
O=C(c1ccc(O)cc1)[C@@H]1CN[C@@]2(C(=O)Nc3ccccc32)[C@H]1c1ccc(F)cc1	SNB-75 CNS	103% (inactive)
NC(N)=Nc1ccc(Oc2cccc(NC(N)=Nc3ccc(Br)cc3)c2)cn1	SNB-75 CNS	68.6% (inactive)
COc1cccc(/C=C(/C)c2ccc3cccc(OC)c3[o+]2)c1O	SNB-75 CNS	92.4% (inactive)
NC(N)=Nc1ccc(Oc2cccc(Nc3ccc(Cl)c(C(F)(F)F)c3)c2)cn1	SNB-75 CNS	20.3% (inactive)
COc1ccc([C@H]2[C@H](O)C(=O)N2c2cc(OC)c(OC)c(OC)c2)cc1F	SNB-75 CNS	19% (inactive)
CCCn1cnc2c(c1=N)C(c1ccc(Cl)cc1)c1sc3c(C)cccc3c1O2 (centres undefined)	SNB-75 CNS	26.7% (inactive)
CC(=O)c1cc(C(=O)c2ccc(Br)cc2)n2cc(C)cc(C)c12	SNB-75 CNS	89.8% (inactive)
O=S(=O)(NCCCNc1nccc(-c2[nH]c(-c3ccccc3)nc2-c2ccc(Cl)c(O)c2)n1)c1cccc(F)c1	SNB-75 CNS	104% (inactive)
C=CCn1c(SCC(=O)Nc2ccc(C(=O)/C=C/c3ccc(C)cc3)cc2)nnc1-c1c[nH]c2ccccc12	SNB-75 CNS	97.4% (inactive)
O=S(=O)(NCCNc1nccc(-n2cnc3ccccc32)n1)c1ccc(C(F)(F)F)cc1	SNB-75 CNS	46.8% (inactive)
CCCCCc1ccc(S(=O)(=O)Nc2cc(-c3csc(NC(=O)CN4CCN(CCO)CC4)n3)ccc2OC)cc1	SNB-75 CNS	92.6% (inactive)
CCCCNNC(=O)c1ccc(-c2cccc(F)c2F)cc1	SNB-75 CNS	80.7% (inactive)
CCCCCc1ccc(S(=O)(=O)Nc2cccc(-c3csc(NC(=O)CN4CCN(C)CC4)n3)c2)cc1	SNB-75 CNS	89.5% (inactive)
Cc1ccc(NC(=O)N[C@@H](Cc2cc(F)cc(F)c2)C(=O)NC2C(=O)N3C[C@H](O)C[C@H]3C(=O)N3CCCC[C@H]3C(=O)N[C@@H](CO)C(=O)N3C[C@H](C)C[C@H]3C(=O)O[C@H]2C)c(F)c1 (some centres undefined)	SNB-75 CNS	27.4% (inactive)
Cc1ccc2sc3c(c2c1)OC(N)=C(C#N)C3c1ccc(Cl)cc1 (centres undefined)	SNB-75 CNS	81.6% (inactive)

====

System: OVCAR-3 ovarian
Assay: NCI-60 one-dose screen, 48 h
Details: 10 µM unless noted
This is part of a sample that, as a whole, favours compounds with a hit. Of some 83,000 tested, about 20% had one in any assay. Activity calls are given as the source filed them. How the source made its calls: active means growth percent below 10; inactive means the rest.
Outcome codes: active, inactive

In [3]: df
Out[3]:
                                   compound  target_or_test_system  label_class
0  O=C1[C@H]2Cc3c([nH]c4ccccc34)[C@@H](c3c(Cl)cccc3Cl)N2C(=O)CN1C1CCN(CC2CCCCC2)CC1        OVCAR-3 ovarian     inactive
1  CCC(CC)N1C(=O)/C(=c2\sc3n(c2=O)NC2C(N=3)N(CC)C(=O)N2CC)c2ccccc21 (centres undefined)        OVCAR-3 ovarian     inactive
2  COc1cc(C2N=C(NNc3ccccc3)NC(C)=C2C(C)=O)ccc1O (centres undefined)        OVCAR-3 ovarian     inactive
3  O=C(CNc1nc(-c2cccc([N+](=O)[O-])c2)cs1)Nc1cccc(Cl)c1        OVCAR-3 ovarian     inactive
4  O=C1[C@@H]2Cc3c([nH]c4ccccc34)[C@H](c3c(Cl)cccc3Cl)N2C(=O)CN1C1CCN(CC2CCCCC2)CC1        OVCAR-3 ovarian     inactive
5  CCCCCc1ccc(S(=O)(=O)Nc2cccc(-c3csc(NC(=O)CN4CCN(CCO)CC4)n3)c2)cc1        OVCAR-3 ovarian     inactive
6  COc1ccc(Cn2cc3c(c2-c2cc(OC)c(OC)c(OC)c2)CCc2c(CN4CCOCC4)noc2-3)cc1        OVCAR-3 ovarian       active
7  N#Cc1cccc(CN2CCc3ncn(Cc4ccc(Cl)cc4)c(=O)c3C2)c1        OVCAR-3 ovarian     inactive
8  O=C(NNc1nc2cc(F)c(F)cc2n2c(CN3CC4CNCC4C3)ccc12)c1ncccn1 (centres undefined)        OVCAR-3 ovarian     inactive
